- Test system: Vero cells
- ASSAY_COMMENT: Cytotoxicity assay on Vero cells (microscopic morphology)
- Type: cell-based
- Parameters: key: -: Safe concentration; + 1, +2, + 3, +4: about 25, 50, 75, 100% of cell sheet was affected respectively; + 1, +2, + 3, +4: about 25, 50, 75, 100% of cell sheet was affected respectively; + 1, +2, + 3, +4: about 25, 50, 75, 100% of cell sheet was affected respectively; + 1, +2, + 3, +4: about 25, 50, 75, 100% of cell sheet was affected respectively; M: masked (color of compounds made cells unseen)
- MEASUREMENT_SETUP: 70 µg/100µl, 24 h, morphological changes
ASSAY_METRIC: Cytotoxicity on Vero cells (cell sheet affected)

| COMPOUND | SYSTEM_TESTED | RESULT |
| --- | --- | --- |
| COc1ccc(OC)c(C=C2/C(=N/Nc3nc(C)c(/N=N/c4ccc([N+](=O)[O-])cc4)s3)c3ccccc3/C2=N\Nc2nc(C)c(/N=N/c3ccc([N+](=O)[O-])cc3)s2)c1 [7d] | Vero cells | - |
| COc1ccc(OC)c(C=C2/C(=N/Nc3nc(C)c(/N=N/c4ccc(C)cc4)s3)c3ccccc3/C2=N\Nc2nc(C)c(/N=N/c3ccc(C)cc3)s2)c1 [7b] | Vero cells | M |
| COc1ccc(OC)c(C=C2/C(=N/Nc3nc(C)cs3)c3ccccc3/C2=N\Nc2nc(C)cs2)c1 [11c] | Vero cells | - |
| CCOC(=O)c1sc(N/N=C2/C(=Cc3cc(OC)ccc3OC)/C(=N/Nc3nc(C)c(C(=O)OCC)s3)c3ccccc32)nc1C [11b] | Vero cells | M |
| COc1ccc(OC)c(C=C2C(=NNC(N)=S)c3ccccc3C2=NNC(N)=S)c1 [compound 3] | Vero cells | - |
| COc1ccc(OC)c(C=C2C(=O)c3ccccc3C2=O)c1 [compound 1] | Vero cells | - |
| COc1ccc(OC)c(C=C2/C(=N/Nc3nc(C)c(C(C)=O)s3)c3ccccc3/C2=N\Nc2nc(C)c(C(C)=O)s2)c1 [11a] | Vero cells | M |

* * *

- System: Vero cells
- ASSAY_COMMENT: Cytotoxicity assay on Vero cells (microscopic morphology)
- Format: cell-based
- Set-up: key: -: Safe concentration; + 1, +2, + 3, +4: about 25, 50, 75, 100% of cell sheet was affected respectively; + 1, +2, + 3, +4: about 25, 50, 75, 100% of cell sheet was affected respectively; + 1, +2, + 3, +4: about 25, 50, 75, 100% of cell sheet was affected respectively; + 1, +2, + 3, +4: about 25, 50, 75, 100% of cell sheet was affected respectively; M: masked (color of compounds made cells unseen)
- MEASUREMENT_SETUP: 90 µg/100µl, 24 h, morphological changes
ASSAY_METRIC: Cytotoxicity on Vero cells (cell sheet affected)

| COMPOUND | RESULT |
| --- | --- |
| COc1ccc(OC)c(C=C2/C(=N/Nc3nc(C)c(/N=N/c4ccc(C)cc4)s3)c3ccccc3/C2=N\Nc2nc(C)c(/N=N/c3ccc(C)cc3)s2)c1 [7b] | M |
| COc1ccc(OC)c(C=C2/C(=N/Nc3nc(C)c(/N=N/c4ccccc4)s3)c3ccccc3/C2=N\Nc2nc(C)c(/N=N/c3ccccc3)s2)c1 [7a] | M |
| COc1ccc(OC)c(C=C2/C(=N/Nc3nc(C)cs3)c3ccccc3/C2=N\Nc2nc(C)cs2)c1 [11c] | M |
| COc1ccc(OC)c(C=C2C(=O)c3ccccc3C2=O)c1 [compound 1] | - |
